Where do the numbers come from? From PubChem BioAssay.

# target: Homeobox protein Hox-A13 (Mus musculus)
# assay-method-text: inhibitors of HoxA13-DNA binding, primary screen, biochemical, fluorescence polarization, labeled oligonucleotide (AID 1185)
# run-conditions: 15 min, higher = more signal, called active from +8 up or from −8 down
We use -2 as the dividing line for z-score: on or above the line is Fulfilled, below is Not fulfilled.

[
  {
    "molecule": "C[C@H]1NC(=O)[C@@]23C(=O)N[C@@H](Cc4ccccc4)C2[C@H](C)[C@@]2(C)O[C@H]2C3/C=C/C/C=C\\CNC(=O)[C@@H]2CCCN2C1=O (stereo partly drawn)",
    "label-class": "Not fulfilled"
  },
  {
    "molecule": "COc1cc(NN2C(C(O)c3ccco3)C=CC3C(=O)N(c4ccccc4)C(=O)C32)cc(OC)c1OC (stereo not drawn)",
    "label-class": "Not fulfilled"
  },
  {
    "molecule": "C=C(COC)/C(=C/C[C@H](OC(C)=O)c1ccc(CO)o1)c1cc(C(=O)OC)ccc1OC",
    "label-class": "Not fulfilled"
  },
  {
    "molecule": "Cc1ccc([C@@H]2C[C@@H](Sc3ccccc3)[C@H](C(=O)O)CN2S(=O)(=O)c2ccc(C)cc2)cc1",
    "label-class": "Not fulfilled"
  },
  {
    "molecule": "C=CCOC(=O)[C@H]1[C@@H]2C(=O)O[C@@H](c3ccccc3)[C@@H](c3ccccc3)N2[C@@H](c2ccc(OCCOC(=O)[C@@H]3C[C@@H]4C(=O)N[C@@H](CCCCNC(C)=O)C(=O)N4[C@@H]3c3ccc(O)cc3)cc2)[C@]12C(=O)Nc1ccccc12",
    "label-class": "Fulfilled"
  },
  {
    "molecule": "C[N+](C)(C)CCCC[C@@H]1NC(=O)[C@H]2C[C@@H](C(=O)NCCCCCCNC(=O)CS)[C@@H](c3cccc(OCCO)c3)N2C1=O",
    "label-class": "Fulfilled"
  },
  {
    "molecule": "CCC[C@@H]1C[C@@]1(CCC)[C@@H](NC(=O)c1ccccc1)c1cccc(Cl)c1",
    "label-class": "Fulfilled"
  },
  {
    "molecule": "O=C1NC(=O)C2C1C=CC(C(O)c1cccs1)N2Nc1ccc(Cl)cc1Cl (stereo not drawn)",
    "label-class": "Not fulfilled"
  }
]
